List of pIC50 values.
target: USP25 (USP25-His6, Boston Biochem E-546) (Homo sapiens, UniProt Q9UHP3); construct: His6; purchased Boston Biochem E-546; assay: Ubiquitin-Rhodamine 110 Assay for USP25 Activity, Example A-2; format: biochemical; conditions: Ubiquitin-Rhodamine 110 assay, Example A-2; read-out: USP25 A-2 IC50 range
Sequence (Q9UHP3 whole entry): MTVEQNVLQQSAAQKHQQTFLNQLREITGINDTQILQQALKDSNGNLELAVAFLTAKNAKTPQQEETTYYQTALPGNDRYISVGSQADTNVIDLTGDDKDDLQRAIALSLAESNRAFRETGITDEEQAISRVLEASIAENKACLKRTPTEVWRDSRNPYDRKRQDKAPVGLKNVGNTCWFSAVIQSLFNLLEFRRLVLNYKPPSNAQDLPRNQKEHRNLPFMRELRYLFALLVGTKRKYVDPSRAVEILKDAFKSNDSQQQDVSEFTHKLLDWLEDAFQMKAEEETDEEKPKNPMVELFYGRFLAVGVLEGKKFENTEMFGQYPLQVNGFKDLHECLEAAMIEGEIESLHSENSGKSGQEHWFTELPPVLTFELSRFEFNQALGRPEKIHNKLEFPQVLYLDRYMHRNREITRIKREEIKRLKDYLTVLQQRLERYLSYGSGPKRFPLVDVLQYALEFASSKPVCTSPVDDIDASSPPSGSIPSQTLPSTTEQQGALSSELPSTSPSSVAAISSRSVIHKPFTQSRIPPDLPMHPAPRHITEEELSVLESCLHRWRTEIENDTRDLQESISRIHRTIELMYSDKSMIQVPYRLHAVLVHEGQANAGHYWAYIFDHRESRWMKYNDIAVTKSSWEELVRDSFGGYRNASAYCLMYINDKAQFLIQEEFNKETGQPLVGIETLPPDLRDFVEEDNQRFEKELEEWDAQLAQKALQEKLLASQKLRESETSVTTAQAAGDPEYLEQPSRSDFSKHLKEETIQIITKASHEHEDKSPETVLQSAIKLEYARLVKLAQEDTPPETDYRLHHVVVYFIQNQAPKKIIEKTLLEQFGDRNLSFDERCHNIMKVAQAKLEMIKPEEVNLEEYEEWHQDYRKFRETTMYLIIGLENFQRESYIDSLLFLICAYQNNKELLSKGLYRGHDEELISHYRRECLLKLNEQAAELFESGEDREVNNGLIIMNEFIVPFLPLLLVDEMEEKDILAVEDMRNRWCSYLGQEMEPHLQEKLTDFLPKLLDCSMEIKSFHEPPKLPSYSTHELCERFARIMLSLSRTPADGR
pIC50: −log10 of the molar value.

Some solved entries appear below for comparison.
CO[C@@H]1CN(c2cc(F)c3c(c2F)OC[C@H](NC(=O)c2sc4nc(C)ccc4c2N)C3)C[C@H]1N [Example 86] :: 5.70 to 6.70
Cc1ccc2c(N)c(C(=O)N[C@H]3COc4cc([C@@H]5CCNC[C@@H]5F)ccc4C3)sc2n1 [Example 83] :: 6.70 to 7.30
COC[C@@H]1C[C@H](N)CN1c1ccc2c(c1)OC[C@H](NC(=O)c1sc3nc(C)ccc3c1N)C2 [Example 263] :: 6.70 to 7.30
CO[C@@H]1CCN(c2ccc3c(c2)OC[C@H](NC(=O)c2sc4nc(C)ccc4c2N)C3)C[C@H]1N [Example 120] :: 5.70 to 6.70
Cc1ccc2c(N)c(C(=O)N[C@H]3COc4cc(N5CCNCC5)c(F)c(F)c4C3)sc2n1 [Example 61] :: 6.70 to 7.30

Which pIC50 reading was recorded for the compound Cc1ccc2c(N)c(C(=O)N[C@H]3Cc4ccc(N5CCNCC5)nc4[C@H](C)C3)sc2n1 [Example 208] ?
5.70 to 6.70

Try Cc1ccc2c(N)c(C(=O)N[C@H]3CCc4c(ccc(N5CC6CNCC(C5)O6)c4F)C3)sc2n1 [Example 99] next.
7.30 to 9.00

###

List of IC50 values.
Biological target: USP28 (His-tagged USP28-FL-mammalian) (Homo sapiens)
Construct: Expression of USP28 (1-1077)-TEV-6*His (pTT5 vector); made in house; host or cells: Expi293f cells (pTT5 vector)
Sequence (Q96RU2 1-1077): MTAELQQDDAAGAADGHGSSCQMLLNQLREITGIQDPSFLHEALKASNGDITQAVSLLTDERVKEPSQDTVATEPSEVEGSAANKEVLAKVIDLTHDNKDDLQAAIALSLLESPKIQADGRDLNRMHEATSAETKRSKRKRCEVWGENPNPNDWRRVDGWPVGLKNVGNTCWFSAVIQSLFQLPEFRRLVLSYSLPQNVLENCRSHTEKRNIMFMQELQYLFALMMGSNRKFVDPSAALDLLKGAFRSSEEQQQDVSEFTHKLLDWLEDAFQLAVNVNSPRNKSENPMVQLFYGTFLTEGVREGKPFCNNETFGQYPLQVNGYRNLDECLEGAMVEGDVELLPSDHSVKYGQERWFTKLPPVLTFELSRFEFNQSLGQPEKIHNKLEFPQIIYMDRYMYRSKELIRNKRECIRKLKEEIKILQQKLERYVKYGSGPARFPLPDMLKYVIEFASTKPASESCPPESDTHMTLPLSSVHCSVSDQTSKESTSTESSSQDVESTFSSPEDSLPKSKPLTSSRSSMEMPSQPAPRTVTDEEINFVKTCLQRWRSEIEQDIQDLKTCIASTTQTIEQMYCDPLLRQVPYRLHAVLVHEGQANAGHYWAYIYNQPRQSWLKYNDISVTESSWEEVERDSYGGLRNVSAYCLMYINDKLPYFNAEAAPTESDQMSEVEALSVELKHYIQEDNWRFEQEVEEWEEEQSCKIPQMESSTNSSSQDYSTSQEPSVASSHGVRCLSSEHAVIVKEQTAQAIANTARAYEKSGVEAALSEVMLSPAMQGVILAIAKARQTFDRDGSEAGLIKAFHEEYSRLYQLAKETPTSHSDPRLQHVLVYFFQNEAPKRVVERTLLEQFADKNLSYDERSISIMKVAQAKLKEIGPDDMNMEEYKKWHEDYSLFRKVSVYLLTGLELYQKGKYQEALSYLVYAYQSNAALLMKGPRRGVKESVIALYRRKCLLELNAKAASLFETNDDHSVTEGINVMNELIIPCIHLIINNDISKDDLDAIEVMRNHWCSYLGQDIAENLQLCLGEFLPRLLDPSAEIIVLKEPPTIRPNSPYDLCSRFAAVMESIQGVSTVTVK
Experiment: Ubiquitin-Rhodamine 110 Assay for USP28 Activity, Example A-1(a)
Format: biochemical
Details: Ub-Rh110 assay, Example A-1(a); read-out: USP28 A-1(a) IC50 range

Which IC50 reading was recorded for the compound Cc1nc2sc(C(=O)N[C@H]3COc4cc(N5CCNCC5)cc(F)c4C3)c(N)c2s1 (single isomer, unassigned) ?
> 2000 nM

Try `Cc1cc(C)c2c(N)c(C(=O)N[C@H]3COc4cc(N5CC6CNCC(C5)O6)ccc4C3)sc2n1` next.
1 to 50 nM

Try `Cc1ccc2c(N)c(C(=O)N[C@H]3COc4cc(N5CC6CNCC(C5)C6(F)F)c(C#N)cc4C3)sc2n1` next.
1 to 50 nM

Try `COc1nc2sc(C(=O)N[C@H]3COc4cc(N5CCNCC5)ccc4C3)c(N)c2cc1F` next.
50 to 200 nM
